Measured melting point, listed per entry.

[[record]]
compound = "CCC1(c2cccs2)OCC(=O)Nc2ccc(-c3ccc(F)c(C#N)c3)cc21 (stereo not drawn)"
outcome_measure = "melting point"
result = "197 to 199 °C"

[[record]]
compound = "Cn1c(C#N)ccc1-c1ccc2c(c1)C(C)(c1cccs1)OCC(=O)N2 (stereo not drawn)"
outcome_measure = "melting point"
result = "197 to 198 °C"

[[record]]
compound = "CCC1(c2cccs2)OCC(=O)Nc2ccc(-c3coc(C#N)c3)cc21 (stereo not drawn)"
outcome_measure = "melting point"
result = "99 to 100 °C"

[[record]]
compound = "CCC1(c2cccs2)OCC(=O)Nc2ccc(-c3csc(C#N)c3)cc21 (stereo not drawn)"
outcome_measure = "melting point"
result = "202 to 204 °C"

[[record]]
compound = "CC1(C)OCC(=O)Nc2ccc(-c3cc(F)cc(C#N)c3)cc21"
outcome_measure = "melting point"
result = "238 to 239 °C"


Please examine the following record next.
What value of measured melting point is listed for CCC1(c2cccs2)OCC(=O)Nc2ccc(-c3sc(C#N)cc3C)cc21 (stereo not drawn) ?
182 to 184 °C

The values you see were collected from patent US7598237B2.
